Test system: HepG2-A16-CD81 hepatocytes
Parameters: Uninfected hepatocyte viability, CellTiter-Glo luminescence
Conditions: cytotoxicity primary screen, inhibitor
// reported HepG2 toxicity primary screen (10uM): inhibition % (n=1) for each item listed
I only need the number, in %, no unit after it.

Illustrative cases are given below, each with its answer.
Using HepG2-A16-CD81 hepatocytes as the test system, report measured HepG2 toxicity primary screen (10uM): inhibition % (n=1) of CCCc1nn(C)c(N)c1-c1ccc2c(c1)OCO2 [DDD01074641] .
-51.45

Give HepG2-A16-CD81 hepatocytes HepG2 toxicity primary screen (10uM): inhibition % (n=1) for the following compound: CCc1c(C)[nH]c2cc(C3CCN(Cc4cccc(F)c4)C3)nn2c1=O (stereo not drawn) [DDD01060569]
-6.43

Enter recorded HepG2 toxicity primary screen (10uM): inhibition % (n=1) with HepG2-A16-CD81 hepatocytes for CCC(=O)Nc1[nH]nc2c1c(C)nn2Cc1cccc(OC)c1 [DDD01063148] here.
-9.24

Others:
Give reported HepG2 toxicity primary screen (10uM): inhibition % (n=1) for COc1cccc(F)c1-c1nc2c(C3CC3)[nH]n(C)c-2n1 [DDD01246655] (HepG2-A16-CD81 hepatocytes)
0.271

Send back HepG2-A16-CD81 hepatocytes HepG2 toxicity primary screen (10uM): inhibition % (n=1) of COc1ccc(F)cc1-c1nc2c(C3CC3)[nH]n(C)c-2n1 [DDD01250494] only.
-2.18

Give the observed HepG2 toxicity primary screen (10uM): inhibition % (n=1) of CCc1nn(C)c(N)c1-c1ccc2c(c1)OCO2 [DDD01074639] for HepG2-A16-CD81 hepatocytes.
-45.08

Provide measured HepG2 toxicity primary screen (10uM): inhibition % (n=1) on HepG2-A16-CD81 hepatocytes for CCn1[nH]cc2nc(-c3cc(OC)c(OC)cc3OC)nc1-2 [DDD01254934] please.
-2.61

Look up HepG2-A16-CD81 hepatocytes data: HepG2 toxicity primary screen (10uM): inhibition % (n=1) of Cc1cc(=O)n2nc(C3CCN(C(=O)c4ccccn4)CC3)cc2[nH]1 [DDD01057174] , then report it.
-3.3635

Look up and report measured HepG2 toxicity primary screen (10uM): inhibition % (n=1) (HepG2-A16-CD81 hepatocytes) for the following compound: CCc1c(C)nn2c(=O)cc(C3CCN(C(=O)c4cnn(C)c4)C3)[nH]c12 (stereo not drawn) [DDD01056908]
4.85
